Provenance of the data: the array DNA melting data of Ke et al. (doi:10.1101/2024.01.08.574731)

ASSAY EXPLANATION: melting temperature; fluorescence melt of hairpins on a sequencing array, two-state fit, raised by 9.35 °C to match UV melts
ASSAY CONDITIONS: sodium 0.088 M
Item-by-item account of Tm
Write it as a number; the unit °C goes unstated.

### Prompt Given the entry GAGGGGGCGAAAGCCCTC (((..(((....)))))) , report its measured Tm.
### Response 40.6

### Prompt Given the entry CGAGCGGAAACGCTGTCG ((((((....)))..))) , report its measured Tm.
### Response 43

====

ASSAY EXPLANATION: folding enthalpy; higher = less favourable; fluorescence melt of hairpins on a sequencing array, two-state fit
ASSAY CONDITIONS: sodium 0.088 M
READOUT LABEL: folding enthalpy
Lab note: write values as number then unit, every time.

INSERT INTO measurements (sequence_code, readout_label, value_reported) VALUES
  ('GATCCTTAGCAGGATC ((((((....))))))', 'folding enthalpy', '-38 kcal/mol'),
  ('GACAGAGGAAACTCTGTC (((((((....)))))))', 'folding enthalpy', '-41.3 kcal/mol'),
  ('GTCTATCGAAAGATGGAC (((.(((....))).)))', 'folding enthalpy', '-30.9 kcal/mol'),
  ('GATTACGAAAGTAATATC ((((((....)))..)))', 'folding enthalpy', '-22.1 kcal/mol'),
  ('GATCCATGCCTGGATC ((((((....))))))', 'folding enthalpy', '-36.2 kcal/mol');

### Prompt Given the entry GATCATGCAATGATC ((((((...)))))) , report its measured folding enthalpy.
### Response -46 kcal/mol

### Prompt Given the entry GGGGCTGGAAACGGTCCC (((.(.(....).).))) , report its measured folding enthalpy.
### Response -33 kcal/mol

### Prompt Given the entry GCAGCGCGAAAGCAGTGC (((..((....))..))) , report its measured folding enthalpy.
### Response -18.1 kcal/mol

### Prompt Given the entry GATCCAAACTGGATC ((((((...)))))) , report its measured folding enthalpy.
### Response -43 kcal/mol

### Prompt Given the entry GATCCAGCTGTGGATC ((((((....)))))) , report its measured folding enthalpy.
### Response -38.8 kcal/mol

====

ASSAY EXPLANATION: melting temperature; fluorescence melt of hairpins on a sequencing array, two-state fit, raised by 9.35 °C to match UV melts
ASSAY CONDITIONS: sodium 0.088 M
Item-by-item account of Tm
Write it as a number; the unit °C goes unstated.

INSERT INTO results (sequence_code, readout_label, unit_descriptor, value_reported) VALUES
  ('GATCTCCGGGGAGATC ((((((....))))))', 'Tm', '°C', 55.7),
  ('GGACGAGGAAACTCGCCC ((.((((....)))).))', 'Tm', '°C', 51.7),
  ('GAGTCCGGAAACGAACTC ((((.((....)).))))', 'Tm', '°C', 41.7),
  ('GATCCGCCAACGGATC ((((((....))))))', 'Tm', '°C', 57.7),
  ('GATCAGCGGTCTGATC ((((((....))))))', 'Tm', '°C', 49.9);

### Prompt Given the entry GTAATCACGAAAGTGTAC (((..(((....)))))) , report its measured Tm.
### Response 29.3

### Prompt Given the entry GATGGCGAAAGCCTATC ((((((....))).))) , report its measured Tm.
### Response 44.3

### Prompt Given the entry GCGCAACGAAAGTTCGC (((.(((....)))))) , report its measured Tm.
### Response 54.9

### Prompt Given the entry GTTGCCGAAAGGCAGAAC ((((((....)))..))) , report its measured Tm.
### Response 37.3
